experiment: yeast display, Sf9 membrane polyspecificity reagent, FACS + sequencing; frameworks hold sequencing errors

SEQUENCE ENTRY | polyreactivity (PSR sort gate)
QVQLVESGGGLVQAGGRLRLSCAASGRTIGVYAMGWYRQAPGKERELVAAISWSGGTTYYADSVKGRFTISRDNAKNTVYLQMNSLKPEDTGVYYCAADGEYPHSEDFEYWGQGTQVTVSS | low polyreactivity
QVQLVESGGGLVQAGGSLRLSCAASGTTFSPNAMGWYRQAPGKERELVAAIRGSGSRTYADSVKGRFTISRDNAKNSVYLQMNSLKPEDTAVYYCAAEWIYDTDYWYYSYYYWGQGTQVTVSS | low polyreactivity
